- Test system: Candida albicans
- assay.procedure: Antimicrobial activity against Candida albicans assessed as growth inhibition after 24 hr by serial double dilution method
- Assay type: functional, organism-based
- setup.conditions: read-out: IC50
pIC50: −log10 of the molar value.
reported.metric: pIC50

entry.smiles: C/C(=N\NC(=S)N1CCNCC1)c1cccc([N+](=O)[O-])c1
target.or.system: Candida albicans
reported.metric: pIC50
numeric.result: 5.70
//
entry.smiles: C/C(=N\NC(=S)N1CCNCC1)c1ccc(Cl)cc1
target.or.system: Candida albicans
reported.metric: pIC50
numeric.result: 5.47
//
entry.smiles: COc1ccc(/C=N/NC(=S)N2CCNCC2)cc1
target.or.system: Candida albicans
reported.metric: pIC50
numeric.result: 5.67
//
entry.smiles: Cc1ccc(/C=N/NC(=S)N2CCNCC2)cc1
target.or.system: Candida albicans
reported.metric: pIC50
numeric.result: 5.43
//
entry.smiles: Oc1ccc(/C=N/NC(=S)N2CCNCC2)cc1
target.or.system: Candida albicans
reported.metric: pIC50
numeric.result: 5.71
//
entry.smiles: C/C(=N\NC(=S)N1CCNCC1)c1ccc(O)cc1
target.or.system: Candida albicans
reported.metric: pIC50
numeric.result: 5.59
//
entry.smiles: S=C(N/N=C/c1ccccc1)N1CCNCC1
target.or.system: Candida albicans
reported.metric: pIC50
numeric.result: 5.73
//
entry.smiles: S=C(N/N=C/c1ccc(Cl)cc1)N1CCNCC1
target.or.system: Candida albicans
reported.metric: pIC50
numeric.result: 5.73
//
entry.smiles: S=C(NN=C(c1ccccc1)c1ccccc1)N1CCNCC1
target.or.system: Candida albicans
reported.metric: pIC50
numeric.result: 5.83
//
entry.smiles: C/C(=N/NC(=S)N1CCNCC1)c1ccccc1
target.or.system: Candida albicans
reported.metric: pIC50
numeric.result: 5.43

This collection of values is drawn from ChEMBL document CHEMBL3045856.
